Test: Initial plasma concentration in Sprague-Dawley rat at 3 mg/kg, iv by LC/MS/MS analysis
Assay type: ADME, organism-based
Parameters: dose 3 mg/kg, route intravenous
observable: C0
Field: value (include unit after the number)

Q: Which C0 value is on record for N[C@@]1(C(=O)O)C[C@@H](F)[C@H]2[C@H](C(=O)O)[C@H]21 ?
Ans: 36.7 µM

====

Exercise: state measured EC50 for each of the compounds provided.
Target: Metabotropic glutamate receptor 8 (Homo sapiens)
Sequence (O00222 whole entry): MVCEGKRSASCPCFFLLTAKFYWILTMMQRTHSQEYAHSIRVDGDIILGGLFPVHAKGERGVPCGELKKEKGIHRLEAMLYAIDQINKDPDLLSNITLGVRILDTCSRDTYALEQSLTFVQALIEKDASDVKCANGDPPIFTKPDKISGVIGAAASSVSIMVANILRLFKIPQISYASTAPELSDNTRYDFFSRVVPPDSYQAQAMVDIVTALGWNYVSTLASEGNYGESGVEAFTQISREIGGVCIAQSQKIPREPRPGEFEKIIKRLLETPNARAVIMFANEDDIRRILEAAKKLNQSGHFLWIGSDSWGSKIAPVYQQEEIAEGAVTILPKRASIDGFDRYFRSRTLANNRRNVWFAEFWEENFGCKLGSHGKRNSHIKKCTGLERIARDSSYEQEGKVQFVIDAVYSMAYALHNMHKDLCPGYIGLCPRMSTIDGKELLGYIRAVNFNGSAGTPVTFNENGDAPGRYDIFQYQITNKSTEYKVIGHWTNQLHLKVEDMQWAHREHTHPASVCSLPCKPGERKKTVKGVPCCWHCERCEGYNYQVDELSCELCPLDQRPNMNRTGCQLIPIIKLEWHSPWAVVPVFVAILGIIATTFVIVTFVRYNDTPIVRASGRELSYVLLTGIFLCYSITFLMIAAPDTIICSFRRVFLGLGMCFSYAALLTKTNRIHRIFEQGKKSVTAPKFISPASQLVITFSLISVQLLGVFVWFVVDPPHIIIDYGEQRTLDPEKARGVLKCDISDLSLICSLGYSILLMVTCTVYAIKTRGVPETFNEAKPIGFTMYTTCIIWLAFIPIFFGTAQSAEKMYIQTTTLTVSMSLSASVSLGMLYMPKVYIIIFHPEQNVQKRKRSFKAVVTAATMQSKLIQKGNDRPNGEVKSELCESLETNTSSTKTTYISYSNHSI
Experiment: Agonist activity at human mGlu8 receptor expressed in golden Syrian hamster AV12 cells coexpressing EAAT1 after 20 mins by FLIPR assay

>>> print(df.to_string())
                           molecular_string  observable  reported_measurement
0  [N-]=[N+]=N[C@H]1C[C@@](N)(C(=O)O)[C@@H]2[C@@H](C(=O)O)[C@@H]21        EC50                 12 µM
1  N[C@@]1(C(=O)O)C[C@H](Sc2ccccc2)[C@H]2[C@H](C(=O)O)[C@H]21        EC50               > 25 µM

# map each compound to its EC50
1. [N-]=[N+]=N[C@@H]1C[C@@](N)(C(=O)O)[C@@H]2[C@@H](C(=O)O)[C@@H]21
2. C[C@@H]1C[C@@](N)(C(=O)O)[C@@H]2[C@@H](C(=O)O)[C@@H]21

Ans:
["12.4 µM", "> 25 µM"]

# map each compound to its EC50
1. N[C@H]1C[C@@](N)(C(=O)O)[C@@H]2[C@@H](C(=O)O)[C@@H]21
2. C[C@H]1C[C@@](N)(C(=O)O)[C@@H]2[C@@H](C(=O)O)[C@@H]21
3. CC(=O)N[C@@H]1C[C@@](N)(C(=O)O)[C@@H]2[C@@H](C(=O)O)[C@@H]21

Ans:
1: > 25 µM; 2: > 25 µM; 3: > 25 µM
